Hello, the source for this data is ChEMBL document CHEMBL1817657, in case you need it.

target: Voltage-gated inwardly rectifying potassium channel KCNH2 (Homo sapiens, UniProt Q12809, F656A); assay: Inhibition of human ERG F656A mutant channel expressed in HEK293 cells assessed as blockade of potassium tail current by whole-cell patch clamp technique
Sequence (Q12809 whole entry F656A): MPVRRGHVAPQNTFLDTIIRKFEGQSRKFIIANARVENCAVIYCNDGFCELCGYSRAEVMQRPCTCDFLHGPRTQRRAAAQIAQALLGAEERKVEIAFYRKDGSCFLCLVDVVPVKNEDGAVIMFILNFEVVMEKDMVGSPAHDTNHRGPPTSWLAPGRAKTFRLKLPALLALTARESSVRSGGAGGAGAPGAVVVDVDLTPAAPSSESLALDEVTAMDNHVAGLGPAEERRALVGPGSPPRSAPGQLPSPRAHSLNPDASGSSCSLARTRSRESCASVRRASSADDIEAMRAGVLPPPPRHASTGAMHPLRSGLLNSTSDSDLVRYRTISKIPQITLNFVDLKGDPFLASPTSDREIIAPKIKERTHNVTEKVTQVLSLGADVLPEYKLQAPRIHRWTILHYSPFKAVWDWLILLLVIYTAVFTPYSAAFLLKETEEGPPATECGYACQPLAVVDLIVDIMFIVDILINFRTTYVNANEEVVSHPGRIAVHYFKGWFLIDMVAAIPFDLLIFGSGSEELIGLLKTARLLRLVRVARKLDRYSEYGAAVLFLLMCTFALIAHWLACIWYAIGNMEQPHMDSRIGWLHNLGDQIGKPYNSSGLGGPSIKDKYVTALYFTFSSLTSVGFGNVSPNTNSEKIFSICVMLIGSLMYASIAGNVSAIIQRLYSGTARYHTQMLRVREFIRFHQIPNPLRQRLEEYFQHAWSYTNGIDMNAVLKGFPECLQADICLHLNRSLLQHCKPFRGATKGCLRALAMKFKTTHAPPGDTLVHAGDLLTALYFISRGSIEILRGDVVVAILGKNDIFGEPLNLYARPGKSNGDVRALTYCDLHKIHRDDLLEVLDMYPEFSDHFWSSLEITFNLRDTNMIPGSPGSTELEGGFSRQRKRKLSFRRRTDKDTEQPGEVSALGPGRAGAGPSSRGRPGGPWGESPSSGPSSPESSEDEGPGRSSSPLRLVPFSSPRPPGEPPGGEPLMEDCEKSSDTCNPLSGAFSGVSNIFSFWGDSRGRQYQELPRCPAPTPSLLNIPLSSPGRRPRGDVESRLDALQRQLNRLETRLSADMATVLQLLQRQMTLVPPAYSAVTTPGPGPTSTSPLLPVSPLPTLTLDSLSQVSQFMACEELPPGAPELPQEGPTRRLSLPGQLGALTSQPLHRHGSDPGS
Where a name gives a salt, the structure may show the parent alone.
Readings of IC50 for the listed molecules

| molecule | IC50 [µM] |
| --- | --- |
| CCCCN1CCCC[C@@H]1C(=O)Nc1c(C)cccc1C | 758 |
| CCCCN1CCCCC1C(=O)Nc1c(C)cccc1C.Cl (racemic) [BUPIVACAINE HYDROCHLORIDE] | 866 |
| CCCCN1CCCC[C@H]1C(=O)Nc1c(C)cccc1C [LEVOBUPIVACAINE HYDROCHLORIDE] | 1010 |
